assay-details: Solubility of indirubin derivative in oils and surfactants (LC/MS/MS)
Type: physicochemical
assay-setup: oil or lipid, thermodynamic from solid; in Olive oil; 72 hours at 37° C.
quantity-name: solubility at 72 h (µg/mL)

> print(dat)
                                 cpd.smiles       quantity.name  output.unit  test.value
1  CO/N=C1/C(=C2/C(=O)Nc3cc(Cl)c(Cl)cc32)Nc2ccccc21  solubility at 72 h        µg/mL         830
